- Tested on: HeLa
- measurementNotes: Cytotoxicity against human HeLa cells after 3 days by MTT assay
- Type: functional, cell-based
- experimentalSetup: 72 h
For each entry below, report its IC50 value.
# unit: µM | format: bare number

Requested field: IC50. Item: "C/C=C/C=C/C(=O)OC[C@H]1C2=C(C[C@H]3[C@H]4C5=C(C[C@@H](C(=O)N13)N4C)C(=O)C(C)=C(OC)C5=O)C(=O)C(C)=C(OC)C2=O"
2.43

Requested field: IC50. Item: "COC1=C(C)C(=O)C2=C(C1=O)[C@@H]1[C@@H]3CC4=C(C(=O)C(OC)=C(C)C4=O)[C@H](COC(=O)c4cc5ccccc5[nH]4)N3C(=O)[C@H](C2)N1C"
2.7

Requested field: IC50. Item: C/C=C(/C)C(=O)OC[C@H]1C2=C(C[C@H]3[C@H]4C5=C(C[C@@H](C(=O)N13)N4C)C(=O)C(C)=C(OC)C5=O)C(=O)C(C)=C(OC)C2=O [(-)-RENIERAMYCIN G]
2.88

Requested field: IC50. Item: "COC1=C(C)C(=O)C2=C(C1=O)[C@@H]1[C@@H]3CC4=C(C(=O)C(OC)=C(C)C4=O)[C@H](COC(=O)c4cc(OC)c(OC)c(OC)c4)N3C(=O)[C@H](C2)N1C"
1.28

Requested field: IC50. Item: "COC1=C(C)C(=O)C2=C(C1=O)[C@@H]1[C@@H]3CC4=C(C(=O)C(OC)=C(C)C4=O)[C@H](COC(=O)/C=C/c4cccc5ccccc45)N3C(=O)[C@H](C2)N1C"
7.42

* * *

For each entry below, report its pIC50 value.
- System: KB
- measurementNotes: Cytotoxicity against human KB cells after 3 days by MTT assay
- Assay type: functional, cell-based
- experimentalSetup: 72 h
Friendly reminder that pIC50 comes from taking -log10 of the concentration in mol/L.

Test system KB; read-out pIC50; what value for "COC1=C(C)C(=O)C2=C(C1=O)[C@@H]1[C@@H]3CC4=C(C(=O)C(OC)=C(C)C4=O)[C@H](COC(=O)/C=C/c4cccc5ccccc45)N3C(=O)[C@H](C2)N1C" ?
5.06

Test system KB; read-out pIC50; what value for "COC1=C(C)C(=O)C2=C(C1=O)[C@@H]1[C@@H]3CC4=C(C(=O)C(OC)=C(C)C4=O)[C@H](COC(=O)c4cccc5ccccc45)N3C(=O)[C@H](C2)N1C" ?
5.27

Test system KB; read-out pIC50; what value for "COC1=C(C)C(=O)C2=C(C1=O)[C@@H]1[C@@H]3CC4=C(C(=O)C(OC)=C(C)C4=O)[C@H](COC(=O)c4cc(OC)c(OC)c(OC)c4)N3C(=O)[C@H](C2)N1C" ?
5.75

Test system KB; read-out pIC50; what value for C/C=C(/C)C(=O)OC[C@H]1C2=C(C[C@H]3[C@H]4C5=C(C[C@@H](C(=O)N13)N4C)C(=O)C(C)=C(OC)C5=O)C(=O)C(C)=C(OC)C2=O [(-)-RENIERAMYCIN G] ?
5.48

Test system KB; read-out pIC50; what value for "COC1=C(C)C(=O)C2=C(C1=O)[C@@H]1[C@@H]3CC4=C(C(=O)C(OC)=C(C)C4=O)[C@H](COC(=O)/C=C/c4ccccc4)N3C(=O)[C@H](C2)N1C" ?
5.53

* * *

- Test system: Bel-7402
- measurementNotes: Cytotoxicity against human Bel7402 cells after 3 days by MTT assay
- Type: functional, cell-based
- experimentalSetup: Bel-7402, 72 h
// returns FALSE unless IC50 is strictly below 10 µM, in which case TRUE

A record lists "COC1=C(C)C(=O)C2=C(C1=O)[C@@H]1[C@@H]3CC4=C(C(=O)C(OC)=C(C)C4=O)[C@H](COC(=O)/C=C/c4cccnc4)N3C(=O)[C@H](C2)N1C" . Is its IC50 below 10 µM?
TRUE

A record lists "COC1=C(C)C(=O)C2=C(C1=O)[C@@H]1[C@@H]3CC4=C(C(=O)C(OC)=C(C)C4=O)[C@H](COC(=O)c4ccccc4)N3C(=O)[C@H](C2)N1C" . Is its IC50 below 10 µM?
TRUE

A record lists "COC1=C(C)C(=O)C2=C(C1=O)[C@@H]1[C@@H]3CC4=C(C(=O)C(OC)=C(C)C4=O)[C@H](COC(=O)/C=C/c4ccc(F)cc4)N3C(=O)[C@H](C2)N1C" . Is its IC50 below 10 µM?
FALSE

A record lists "COC1=C(C)C(=O)C2=C(C1=O)[C@@H]1[C@@H]3CC4=C(C(=O)C(OC)=C(C)C4=O)[C@H](COC(=O)c4cccc5ccccc45)N3C(=O)[C@H](C2)N1C" . Is its IC50 below 10 µM?
FALSE

A record lists "COC1=C(C)C(=O)C2=C(C1=O)[C@@H]1[C@@H]3CC4=C(C(=O)C(OC)=C(C)C4=O)[C@H](COC(=O)c4cccs4)N3C(=O)[C@H](C2)N1C" . Is its IC50 below 10 µM?
TRUE

A record lists "COC1=C(C)C(=O)C2=C(C1=O)[C@@H]1[C@@H]3CC4=C(C(=O)C(OC)=C(C)C4=O)[C@H](COC(C)=O)N3C(=O)[C@H](C2)N1C" . Is its IC50 below 10 µM?
TRUE

* * *

- System: Bel-7402
- measurementNotes: Cytotoxicity against human Bel7402 cells after 3 days by MTT assay
- Assay type: functional, cell-based
- experimentalSetup: Bel-7402, 72 h
propertyMeasured: IC50 (µM)
# unit: µM | format: bare number

Requested field: IC50. Item: "COC1=C(C)C(=O)C2=C(C1=O)[C@@H]1[C@@H]3CC4=C(C(=O)C(OC)=C(C)C4=O)[C@H](COC(=O)/C=C/c4ccccc4)N3C(=O)[C@H](C2)N1C"
2.3

Requested field: IC50. Item: "C/C=C/C(=O)OC[C@H]1C2=C(C[C@H]3[C@H]4C5=C(C[C@@H](C(=O)N13)N4C)C(=O)C(C)=C(OC)C5=O)C(=O)C(C)=C(OC)C2=O"
23.9

Requested field: IC50. Item: "COC1=C(C)C(=O)C2=C(C1=O)[C@@H]1[C@@H]3CC4=C(C(=O)C(OC)=C(C)C4=O)[C@H](COC(=O)c4cc5ccccc5[nH]4)N3C(=O)[C@H](C2)N1C"
4.59

Requested field: IC50. Item: "COC1=C(C)C(=O)C2=C(C1=O)[C@@H]1[C@@H]3CC4=C(C(=O)C(OC)=C(C)C4=O)[C@H](COC(=O)c4cccnc4)N3C(=O)[C@H](C2)N1C"
6.47

Requested field: IC50. Item: "COC1=C(C)C(=O)C2=C(C1=O)[C@@H]1[C@@H]3CC4=C(C(=O)C(OC)=C(C)C4=O)[C@H](COC(=O)c4cc(OC)c(OC)c(OC)c4)N3C(=O)[C@H](C2)N1C"
2.26

* * *

For each entry below, report its IC50 value.
- Test system: A549
- measurementNotes: Cytotoxicity against human A549 cells after 3 days by MTT assay
- Assay type: functional, cell-based
- experimentalSetup: A549, 72 h
# unit: µM | format: bare number

Requested field: IC50. Item: "COC1=C(C)C(=O)C2=C(C1=O)[C@@H]1[C@@H]3CC4=C(C(=O)C(OC)=C(C)C4=O)[C@H](COC(=O)c4cc5ccccc5[nH]4)N3C(=O)[C@H](C2)N1C"
4.07

Requested field: IC50. Item: "C/C=C/C=C/C(=O)OC[C@H]1C2=C(C[C@H]3[C@H]4C5=C(C[C@@H](C(=O)N13)N4C)C(=O)C(C)=C(OC)C5=O)C(=O)C(C)=C(OC)C2=O"
3.2

Requested field: IC50. Item: "COC1=C(C)C(=O)C2=C(C1=O)[C@@H]1[C@@H]3CC4=C(C(=O)C(OC)=C(C)C4=O)[C@H](COC(=O)c4cc(OC)c(OC)c(OC)c4)N3C(=O)[C@H](C2)N1C"
2.23

Requested field: IC50. Item: "COC1=C(C)C(=O)C2=C(C1=O)[C@@H]1[C@@H]3CC4=C(C(=O)C(OC)=C(C)C4=O)[C@H](COC(=O)c4cccs4)N3C(=O)[C@H](C2)N1C"
0.71

Requested field: IC50. Item: "COC1=C(C)C(=O)C2=C(C1=O)[C@@H]1[C@@H]3CC4=C(C(=O)C(OC)=C(C)C4=O)[C@H](COC(=O)/C=C/c4cccnc4)N3C(=O)[C@H](C2)N1C"
2.05

* * *

- Tested on: HeLa
- measurementNotes: Cytotoxicity against human HeLa cells after 3 days by MTT assay
- Type: functional, cell-based
- experimentalSetup: 72 h
For each entry below, report its pIC50 value.
Friendly reminder that pIC50 comes from taking -log10 of the concentration in mol/L.

Requested field: pIC50. Item: "COC1=C(C)C(=O)C2=C(C1=O)[C@@H]1[C@@H]3CC4=C(C(=O)C(OC)=C(C)C4=O)[C@H](COC(=O)/C=C/c4ccccc4)N3C(=O)[C@H](C2)N1C"
5.36

Requested field: pIC50. Item: "COC1=C(C)C(=O)C2=C(C1=O)[C@@H]1[C@@H]3CC4=C(C(=O)C(OC)=C(C)C4=O)[C@H](COC(=O)/C=C/c4ccc(OC)c(OC)c4OC)N3C(=O)[C@H](C2)N1C"
5.29

Requested field: pIC50. Item: "COC1=C(C)C(=O)C2=C(C1=O)[C@@H]1[C@@H]3CC4=C(C(=O)C(OC)=C(C)C4=O)[C@H](COC(=O)/C=C/c4cccnc4)N3C(=O)[C@H](C2)N1C"
5.93
